Recorded measurements of pIC50, one per entry
assayedSystem: KRasG12C (M1-K169, biotinylated on the N-terminus) (Homo sapiens (Human), UniProt P01116, G12C)
assayRemarks: Covalent competition assay: scintillation proximity assay (SPA) quantifying covalent modification of KRASG12C
conditionInfo: competition with radiolabeled covalent probe (Compound B/Compound A), 2 hours incubation, 10 nM KRasG12C
// pIC50: -log10(molar conc.)

compound | quantity | experimentalResult
C=CC(=O)N1CC2(CC(n3nc(N4CC[C@@H](CN5C[C@H](O)C[C@H]5COC)CC4(C)C)c(-c4c(Cl)c(Cl)cc5[nH]ncc45)c3C)C2)C1 (single isomer, unassigned) [Example 286a] | pIC50 | 5.96

Query: Reported pIC50 for C=CC(=O)N1CC2(CC(n3nc(N4CCN(CC(C)(C)O)C[C@]4(C)CC)c(-c4c(Cl)c(C)cc5[nH]ncc45)c3C)C2)C1 (single isomer, unassigned) [Example 161b] : what is it?
Reply: 8.10

Query: Reported pIC50 for C=CC(=O)N1CC2(CC(n3nc(N4CCN(C(=O)OCCOC)CC45CCC5)c(-c4c(Cl)c(C)cc5[nH]ncc45)c3C)C2)C1 (single isomer, unassigned) [Example 122b] : what is it?
Reply: 7.80

Query: Reported pIC50 for C=CC(=O)N1CC2(CC(n3nc(N4CCC(N(C)C5COC5)CC45CCC5)c(-c4c(Cl)c(C)cc5[nH]nc(N)c45)c3C)C2)C1 (single isomer, unassigned) [Example 116a] : what is it?
Reply: 6.69

====

assayedSystem: KRasG12C (M1-K169, biotinylated on the N-terminus) (Homo sapiens (Human), UniProt P01116, G12C)
assayRemarks: Covalent competition assay: scintillation proximity assay (SPA) quantifying covalent modification of KRASG12C
conditionInfo: competition with radiolabeled covalent probe (Compound B/Compound A), 2 hours incubation, 10 nM KRasG12C
quantity: pIC50
// pIC50: -log10(molar conc.)

Use the examples below as a reference point.
molecule | pIC50
C=CC(=O)N1CC2(CC(n3nc(N4CC[C@@H](CN5CCN6C(=O)OCC6C5)CC4(C)C)c(-c4c(Cl)c(Cl)cc5[nH]ncc45)c3C)C2)C1 (single isomer, unassigned) [Example 312b] | 8.05
CC[C@@]1(C)CN(C[C@@H]2COCCO2)CCN1c1nn(C2CC3(C2)CN(C(=O)/C=C/Cl)C3)c(C)c1-c1c(Cl)c(C)cc2[nH]ncc12 (single isomer, unassigned) [Example 175b] | 8.05
C=CC(=O)N1CC2(CC(n3nc(N4CCN(C5COC5)CC45CCC5)c(-c4c(Cl)c(C)cc5[nH]ncc45)c3C)C2)C1 (single isomer, unassigned) [Example 54a] | 4.75
C=CC(=O)N1CC2(CC(n3nc(N4CCN(C[C@@H]5COCCO5)C[C@]4(C)CC)c(-c4c(O)cccc4Cl)c3C)C2)C1 [Example 111] | 5.77

Kindly consider the entry below.
Query: Reported pIC50 for C=CC(=O)N1CC2(CC(n3nc(N4CCC(CN5CCS(=O)(=O)CC5)CC4(C)C)c(-c4c(Cl)c(Cl)cc5[nH]ncc45)c3C)C2)C1 (single isomer, unassigned) [Example 235a] : what is it?
Reply: 6.03

====

Recorded measurements of IC50, one per entry
assayedSystem: KRasG12C (M1-K169, biotinylated on the N-terminus) (Homo sapiens (Human), UniProt P01116, G12C)
assayRemarks: Covalent competition assay: scintillation proximity assay (SPA) quantifying covalent modification of KRASG12C
conditionInfo: competition with radiolabeled covalent probe (Compound B/Compound A), 2 hours incubation, 10 nM KRasG12C
Numeric answer only, unit nM assumed.

compound | unitOfMeasurement | IC50
C=CC(=O)N1CC2(CC(n3nc(N4CC[C@@H](CN5CC6CC6(O)C5)CC4(C)C)c(-c4c(Cl)c(Cl)cc5[nH]ncc45)c3C)C2)C1 (single isomer, unassigned) [Example 257b] | nM | 12
C=CC(=O)N1CC2(CC(n3nc(N4CCN(C[C@@H]5COCCO5)C[C@]4(C)COC)c(-c4c(Cl)c(Cl)cc5[nH]ncc45)c3C)C2)C1 (single isomer, unassigned) [Example 182b] | nM | 8

Kindly consider the entry below.
Query: Reported IC50 for C=CC(=O)N1CC2(CC(n3cc(-c4c(Cl)c(C)cc5[nH]ncc45)c(N4CC[C@@H](CN5CCOCC5)CC4(C)C)n3)C2)C1 : what is it?
Reply: 600
